Biological target: human Factor IXa (human, UniProt P00740 47-191; P00740 227-461)
Assay: cell-based or functional assay
Square brackets hold non-standard residues; d marks the D form. Ends that are not written are not given here. :N‑O‑CH2‑CO‑PEG27 = oxime linkage (=N-O-CH2-CO-) to a PEG27 spacer
MEASURED_QUANTITY: EC50 [µM], FXa generation assay

Solved entries (count: 2):
KLTCKASYCWLF = > 1 µM
APGKLQCLASYCWLFWTGIA = < 0.5 µM

Consider now this further binder.
Prompt: Record request: EC50 [µM], FXa generation assay value, item H-KLTCLASYCWLFG[:N‑O‑CH2‑CO‑PEG27]CNPRGDY(OEt)RC (numbers in words are those of the source; cysteine pairing not given here; also: oxime link =N-O-CH2-CO-PEG27 between G13 and C14, Y20 as Y-OEt) [H3N-KLTCLASYCWLFG═N-O-CH2-CO-PEG27-CNPRGD-(Y-OEt)-RC]
Response: > 50 µM
